Tested on: A549
Test Summary: NCI tumour cell line growth inhibition, 48 h
Activity calls are given as the source filed them. Rule as the data show it: active = GI50 up to about 1.1 µM and inactive = higher.
Measured GI50 by item
Test Readout: GI50

INSERT INTO measurements (molecule, test_result) VALUES
  ('CCC1C(=O)OCc2c1cc1n(c2=O)CCC12OCCO2 (stereo unspecified)', '> 100 µM (inactive)'),
  ('Oc1cccc2c1[nH]c1c(C3=C[C@@]4(O)CC/C=C\CCCCN5CC[C@@H]3[C@]3(CC6/C=C\CCCCN6[C@H]34)C5)nccc12 (stereo partly specified)', '2.04 µM (inactive)'),
  ('CP(C)C.[Ag][I]', '> 100 µM (inactive)'),
  ('O=C(Nc1ccc2[nH]c(C(=O)N3CC(CCl)c4c3cc([N+](=O)[O-])c3ccccc43)cc2c1)Nc1ccc2[nH]c(C(=O)N3CC(CCl)c4c3cc([N+](=O)[O-])c3ccccc43)cc2c1 (stereo unspecified)', '> 100 µM (inactive)'),
  ('NNc1ncnc2cccc(Cl)c12', '> 100 µM (inactive)'),
  ('Cn1cc2ccccc2c1-c1nc(F)nc(Oc2ccc3c(c2)CC[C@@H]2C3CC[C@@]3(C)C2C[C@H](O)[C@@H]3O)n1 (stereo partly specified)', '18.6 µM (inactive)'),
  ('CC1(C)CNC(=O)C2(CCCO2)CNC(C)(C)CNC(=O)C2(CCCO2)CN1 (stereo unspecified)', '> 10 µM (inactive)'),
  ('CC(C)(C)OC(=O)NNCC(O)COc1ccccc1 (stereo unspecified)', '> 100 µM (inactive)'),
  ('Cc1ccc(S(=O)(=O)N/N=C2\C3CC4CC(C3)C2C4)cc1 (stereo unspecified)', '> 100 µM (inactive)'),
  ('COc1cccc2c1OC1c3ccccc3OCC1C2 (stereo unspecified)', '> 100 µM (inactive)'),
  ('C=C(C)C1Cc2c(cc(OC)c3c(=O)c4cccc(O)c4oc23)O1 (stereo unspecified)', '31.8 µM (inactive)'),
  ('O=C(Cc1nc2ccccc2c(=O)n1-c1ccccc1Cl)c1ccncc1', '> 100 µM (inactive)'),
  ('c1c[nH]c(CN2CCN(Cc3ncc[nH]3)CC2)n1', '> 100 µM (inactive)'),
  ('CCOC(=O)c1ccc(-n2nnc(C(N)=O)c2O)cc1', '> 100 µM (inactive)'),
  ('Nc1c(S(=O)(=O)c2ccc(Cl)cc2)c2nc3ccccc3nc2n2ccnc12', '85.9 µM (inactive)'),
  ('CC[C@@H]1CC[C@@H]2[C@H](CC[C@]3(C)[C@@H](OS(=O)(=O)c4ccc(C)cc4)CC[C@@H]23)[C@H]1CO', '> 100 µM (inactive)'),
  ('CC(C)=CCOc1cc(NC(=S)c2ccsc2C)ccc1Cl', '46.7 µM (inactive)'),
  ('CC1N=C(c2ccccc2)OC1=O (stereo unspecified)', '> 100 µM (inactive)'),
  ('N=c1oc2ccccc2cc1C(=O)Nc1ccccn1', '> 100 µM (inactive)'),
  ('COc1ccccc1N1C(=O)/C(=C\c2cccc(Oc3ccccc3)c2)SC1c1ccccc1 (stereo unspecified)', '34.3 µM (inactive)'),
  ('CCCCCCCC1(N=[N+]=[N-])C(=O)c2ccccc2N(C)C1=O (stereo unspecified)', '68.5 µM (inactive)');

src = ChEMBL document CHEMBL1201862
